Hi there, I'd appreciate the recorded ΔTm for every entry that follows.
# tested-system: Serine/threonine-protein kinase VRK2 (Homo sapiens)
Quick reminder: number only, in °C, skip the unit.

Specify measured ΔTm for `COc1cc2ncnc(Nc3cccc(Br)c3)c2cc1OC` .
0.4

Specify measured ΔTm for `O=c1c2ccccc2[nH]c(=S)n1CCN1CCC(=C(c2ccc(F)cc2)c2ccc(F)cc2)CC1` .
-0.2

Specify measured ΔTm for `COc1cccc(-c2cc(=O)c3ccccc3o2)c1N` .
0.2

Specify measured ΔTm for `O=c1c(O)c(-c2ccc(O)c(O)c2)oc2cc(O)cc(O)c12` .
2.7

Specify measured ΔTm for `COc1ccc(CNc2nc(N(CCO)CCO)nc3c2ncn3C(C)C)cc1` .
1.4

Specify measured ΔTm for O=C1NC(=O)c2c1c1c3ccccc3[nH]c1n1cncc21 [ISOGRANULATIMIDE] .
2

Specify measured ΔTm for COc1ccc2c(c[n+](C)c3c4cc5c(cc4ccc23)OCO5)c1OC [CHELERYTHRINE CHLORIDE] .
0

Specify measured ΔTm for `O=C1Nc2ccccc2/C1=C/c1cnc[nH]1` .
2.1

Specify measured ΔTm for `O=C1Nc2cc(Br)ccc2/C1=C1/Nc2ccccc2/C1=N\O` .
0.3

Specify measured ΔTm for `O=C1Cc2c([nH]c3ccc([N+](=O)[O-])cc23)-c2ccccc2N1` .
0.3

Specify measured ΔTm for `CC(C)N(CCO)c1nc(Nc2cccc(Cl)c2)c2ncn(C(C)C)c2n1` .
2.7

Specify measured ΔTm for `O=C1NC(=O)c2c1c1c3ccccc3n3c1c1c2c2ccccc2n1C1CCC3O1` .
0.1

Specify measured ΔTm for `Nc1cc2ncnc(Nc3cccc(Br)c3)c2cc1N` .
1.2

Specify measured ΔTm for `O=c1ccc2ccc(O)c(O)c2o1` .
-0.1

Specify measured ΔTm for `N#C/C(=C\c1ccc(O)c(O)c1)C(=O)NCc1ccccc1` .
0.2

Specify measured ΔTm for CSc1nc(-c2ccc(F)cc2)c(-c2ccnc(NC(C)c3ccccc3)c2)[nH]1 (racemic) .
0.2

Specify measured ΔTm for `CN(C)c1ncnc2nc[nH]c12` .
0

Specify measured ΔTm for `COc1ccc2c(c1)/C(=C/c1cnc[nH]1)C(=O)N2` .
0.7

Specify measured ΔTm for `COc1cc2ncnc(Nc3cccc(O)c3)c2cc1OC` .
0.9

Specify measured ΔTm for `O=C1Nc2ccccc2/C1=C\c1ccc[nH]1` .
3.4

Specify measured ΔTm for `CC(C)n1cnc2c(NCc3ccccc3O)nc(NCCCO)nc21` .
0.6

Specify measured ΔTm for `CCOC(=O)c1c(C)[nH]c(/C=C2\C(=O)Nc3ccccc32)c1C` .
0.2
